Molecular target: WT Nav1.5-α subunits (Homo sapiens)
Construct: expressed in transfected cells; host or cells: HEK293 (transient transfection)
Experiment: Whole-cell patch clamp, use-dependence (slow inactivation) protocol at 6 Hz in transiently transfected HEK293 cells
Format: cell-based
Conditions: Hill curve; use-dependence at 6 Hz; read-out: UDI Block IC50
Assay Readout: IC50 (µM)
Number only, in µM; omit the unit.

- Structure: "CCc1ccccc1NS(=O)(=O)c1ccc2c(c1)=NC(=O)N=2"
  Assay System: "WT Nav1.5-α subunits (Homo sapiens)"
  Numeric Value: 95.1
- Structure: "COc1cccc(NS(=O)(=O)c2ccc3c(c2)=NC(=O)N=3)c1"
  Assay System: "WT Nav1.5-α subunits (Homo sapiens)"
  Numeric Value: 40.7
- Structure: "Cc1cc(F)ccc1NS(=O)(=O)c1ccc2c(c1)=NC(=O)N=2"
  Assay System: "WT Nav1.5-α subunits (Homo sapiens)"
  Numeric Value: 901
- Structure: "C=CCNS(=O)(=O)c1ccc2c(c1)=NC(=O)N=2"
  Assay System: "WT Nav1.5-α subunits (Homo sapiens)"
  Numeric Value: 0.196

Input line: Please list IC50 recorded for the compound CN(C)[C@@H](CNC(=O)c1ccc2c(c1)=NC(=O)C(=O)N=2)c1ccco1
Output line: 269

Input line: Answer with the recorded IC50 of O=C1N=c2ccc(C(=O)NCc3ccco3)cc2=NC1=O only.
Output line: 0.251

====

Target: WT Nav1.5-α subunits (Homo sapiens)
Construct: expressed in transfected cells; host or cells: HEK293 (transient transfection)
Test: Whole-cell patch clamp, single voltage-pulse protocol (peak INa, conductance, fast inactivation) in transiently transfected HEK293 cells
Type: cell-based
Conditions: Hill curve; single voltage-pulse protocol
Assay Readout: log10 IC50 (log10 of the value in µM)
Transform log10 | Measure IC50 | Unit µM

A selection of reference data follows.
- Structure: "CCc1ccccc1NS(=O)(=O)c1ccc2c(c1)=NC(=O)N=2"
  Assay Readout: "log10 IC50"
  Numeric Value: 0.99
- Structure: "COc1cccc(NS(=O)(=O)c2ccc3c(c2)=NC(=O)N=3)c1"
  Assay Readout: "log10 IC50"
  Numeric Value: 1.54
- Structure: "CN(C)[C@@H](CNC(=O)c1ccc2c(c1)=NC(=O)C(=O)N=2)c1ccco1"
  Assay Readout: "log10 IC50"
  Numeric Value: 1.10
- Structure: "O=C1N=c2ccc(C(=O)NCc3ccco3)cc2=NC1=O"
  Assay Readout: "log10 IC50"
  Numeric Value: 0.88
- Structure: "C=CCNS(=O)(=O)c1ccc2c(c1)=NC(=O)N=2"
  Assay Readout: "log10 IC50"
  Numeric Value: 0.81

Now take the following compound into account.
Input line: Identify measured log10 IC50 obtained with WT Nav1.5-α subunits (Homo sapiens) for Cc1cc(F)ccc1NS(=O)(=O)c1ccc2c(c1)=NC(=O)N=2 .
Output line: -0.03

====

Molecular target: WT Nav1.5-α subunits (Homo sapiens, UniProt Q14524)
Construct: expressed in transfected cells; host or cells: HEK293 (transient transfection)
Sequence (Q14524 whole entry): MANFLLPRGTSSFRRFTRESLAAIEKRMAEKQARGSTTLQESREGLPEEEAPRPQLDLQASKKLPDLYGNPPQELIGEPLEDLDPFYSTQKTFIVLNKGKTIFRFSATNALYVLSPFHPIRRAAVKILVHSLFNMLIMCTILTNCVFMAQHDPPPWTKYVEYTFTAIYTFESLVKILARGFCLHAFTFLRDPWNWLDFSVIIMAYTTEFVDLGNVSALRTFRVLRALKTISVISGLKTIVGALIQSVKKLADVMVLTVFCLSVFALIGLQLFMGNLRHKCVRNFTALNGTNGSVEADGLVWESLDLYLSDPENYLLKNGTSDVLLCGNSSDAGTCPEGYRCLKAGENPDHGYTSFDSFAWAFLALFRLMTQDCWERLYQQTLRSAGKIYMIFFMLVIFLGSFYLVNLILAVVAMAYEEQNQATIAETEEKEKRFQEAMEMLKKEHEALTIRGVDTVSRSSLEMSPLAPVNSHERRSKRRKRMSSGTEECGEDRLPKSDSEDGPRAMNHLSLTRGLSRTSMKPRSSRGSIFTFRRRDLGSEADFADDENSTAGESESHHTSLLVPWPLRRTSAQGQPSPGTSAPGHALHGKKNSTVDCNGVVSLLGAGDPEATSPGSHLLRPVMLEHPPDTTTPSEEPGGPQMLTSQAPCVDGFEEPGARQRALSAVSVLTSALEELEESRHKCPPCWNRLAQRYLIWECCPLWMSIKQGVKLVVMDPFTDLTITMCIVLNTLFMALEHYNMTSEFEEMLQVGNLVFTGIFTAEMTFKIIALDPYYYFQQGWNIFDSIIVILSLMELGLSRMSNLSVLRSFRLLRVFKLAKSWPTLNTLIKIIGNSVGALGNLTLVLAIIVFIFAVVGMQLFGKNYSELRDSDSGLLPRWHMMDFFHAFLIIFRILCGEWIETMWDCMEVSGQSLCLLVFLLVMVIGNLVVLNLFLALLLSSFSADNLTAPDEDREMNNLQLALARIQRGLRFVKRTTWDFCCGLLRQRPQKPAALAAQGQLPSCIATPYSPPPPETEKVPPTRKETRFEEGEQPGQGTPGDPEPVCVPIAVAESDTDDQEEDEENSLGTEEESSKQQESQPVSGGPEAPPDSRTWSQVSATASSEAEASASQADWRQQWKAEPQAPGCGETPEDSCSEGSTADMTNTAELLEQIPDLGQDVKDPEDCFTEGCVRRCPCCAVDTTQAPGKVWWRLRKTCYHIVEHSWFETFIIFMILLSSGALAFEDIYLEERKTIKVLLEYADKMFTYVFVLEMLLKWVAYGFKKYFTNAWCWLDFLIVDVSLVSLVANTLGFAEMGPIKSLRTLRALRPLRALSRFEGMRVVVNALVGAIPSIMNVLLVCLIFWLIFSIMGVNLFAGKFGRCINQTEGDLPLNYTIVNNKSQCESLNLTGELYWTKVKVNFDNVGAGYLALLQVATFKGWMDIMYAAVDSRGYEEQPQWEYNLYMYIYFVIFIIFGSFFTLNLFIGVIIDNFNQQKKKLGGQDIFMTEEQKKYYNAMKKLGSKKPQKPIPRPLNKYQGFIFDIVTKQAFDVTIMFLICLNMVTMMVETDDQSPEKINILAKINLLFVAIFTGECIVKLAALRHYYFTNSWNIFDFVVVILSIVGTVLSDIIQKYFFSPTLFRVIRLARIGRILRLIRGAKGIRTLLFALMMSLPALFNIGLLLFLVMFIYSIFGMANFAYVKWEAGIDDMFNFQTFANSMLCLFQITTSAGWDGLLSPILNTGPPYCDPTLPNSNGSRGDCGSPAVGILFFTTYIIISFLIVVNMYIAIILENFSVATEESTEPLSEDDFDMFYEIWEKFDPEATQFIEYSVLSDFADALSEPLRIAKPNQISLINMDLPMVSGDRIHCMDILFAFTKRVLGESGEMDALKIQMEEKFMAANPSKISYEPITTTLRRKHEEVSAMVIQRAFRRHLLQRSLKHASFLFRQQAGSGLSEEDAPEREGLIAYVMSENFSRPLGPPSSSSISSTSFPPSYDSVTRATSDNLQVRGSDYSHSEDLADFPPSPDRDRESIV
Test: Whole-cell patch clamp, single voltage-pulse protocol (peak INa, conductance, fast inactivation) in transiently transfected HEK293 cells
Format: cell-based
Settings: 10 μM
Reported fast inactivation onset time constant FI −10 mV values are given for each entry in this list.
Response body: numeric value in ms, unit text excluded.

Please review the following examples before continuing.
- Structure: "CCc1ccccc1NS(=O)(=O)c1ccc2c(c1)=NC(=O)N=2"
  Units Symbol: "ms"
  Numeric Value: 0.41
- Structure: "COc1cccc(NS(=O)(=O)c2ccc3c(c2)=NC(=O)N=3)c1"
  Units Symbol: "ms"
  Numeric Value: 0.40
- Structure: "O=C1N=c2ccc(C(=O)NCc3ccco3)cc2=NC1=O"
  Units Symbol: "ms"
  Numeric Value: 0.39
- Structure: "C=CCNS(=O)(=O)c1ccc2c(c1)=NC(=O)N=2"
  Units Symbol: "ms"
  Numeric Value: 0.31

Input line: Name the recorded fast inactivation onset time constant FI −10 mV of the compound listed here: Cc1cc(F)ccc1NS(=O)(=O)c1ccc2c(c1)=NC(=O)N=2
Output line: 0.37

Input line: Give the value of fast inactivation onset time constant FI −10 mV reported for the following: CN(C)[C@@H](CNC(=O)c1ccc2c(c1)=NC(=O)C(=O)N=2)c1ccco1
Output line: 0.33

====

Here the recorded Peak INa −20 mV is given for each entry.
Target: WT Nav1.5-α subunits (Homo sapiens, UniProt Q14524)
Construct: expressed in transfected cells; host or cells: HEK293 (transient transfection)
Test: Whole-cell patch clamp, single voltage-pulse protocol (peak INa, conductance, fast inactivation) in transiently transfected HEK293 cells
Type: cell-based
Details: 50 μM; normalized peak INa; 37° C.

Input line: Give the measured Peak INa −20 mV for Cc1cc(F)ccc1NS(=O)(=O)c1ccc2c(c1)=NC(=O)N=2
Output line: −0.85 ± 0.08

Input line: # return recorded Peak INa −20 mV for input COc1cccc(NS(=O)(=O)c2ccc3c(c2)=NC(=O)N=3)c1
Output line: −0.72 ± 0.06

Input line: For C=CCNS(=O)(=O)c1ccc2c(c1)=NC(=O)N=2 , write its Peak INa −20 mV.
Output line: −0.58 ± 0.06

Input line: # return recorded Peak INa −20 mV for input O=C1N=c2ccc(C(=O)NCc3ccco3)cc2=NC1=O
Output line: −0.59 ± 0.11

Input line: Report Peak INa −20 mV, nothing else, for this compound: CCc1ccccc1NS(=O)(=O)c1ccc2c(c1)=NC(=O)N=2
Output line: −0.58 ± 0.10

Input line: Tell me Peak INa −20 mV reported for CN(C)[C@@H](CNC(=O)c1ccc2c(c1)=NC(=O)C(=O)N=2)c1ccco1
Output line: −0.63 ± 0.06

====

Property: fast inactivation onset time constant FI +10 mV; scope: individual compounds
Target: WT Nav1.5-α subunits (Homo sapiens, UniProt Q14524)
Construct: expressed in transfected cells; host or cells: HEK293 (transient transfection)
Assay: Whole-cell patch clamp, single voltage-pulse protocol (peak INa, conductance, fast inactivation) in transiently transfected HEK293 cells
Format: cell-based
Conditions: 100 μM
Experimental: In one set of studies, we used a whole-cell patch clamp technique with single voltage-pulse protocols (FIGS. 3A-B) to characterize compounds ZINC38767171, ZINC39699427, ZINC40014265, ZINC64470729, ZINC64470737 and ZINC64470745. […] The six compounds were screened against wild type (WT) Nav1.5-α subunits at the optimal physiological temperature of 37° C. […] The α subunits were co-expressed with the β1 subunit and eGFP (enhanced green fluorescence protein) in a 2:1:2 ratio, respectively. […]
Hi! Could you send only the number? It should be in ms, unit omitted.

Study these solved cases before continuing.
- Structure: "Cc1cc(F)ccc1NS(=O)(=O)c1ccc2c(c1)=NC(=O)N=2"
  Numeric Value: 0.28
- Structure: "CN(C)[C@@H](CNC(=O)c1ccc2c(c1)=NC(=O)C(=O)N=2)c1ccco1"
  Numeric Value: 0.26
- Structure: "C=CCNS(=O)(=O)c1ccc2c(c1)=NC(=O)N=2"
  Numeric Value: 0.26
- Structure: "COc1cccc(NS(=O)(=O)c2ccc3c(c2)=NC(=O)N=3)c1"
  Numeric Value: 0.23
- Structure: "CCc1ccccc1NS(=O)(=O)c1ccc2c(c1)=NC(=O)N=2"
  Numeric Value: 0.49

Input line: Report fast inactivation onset time constant FI +10 mV for O=C1N=c2ccc(C(=O)NCc3ccco3)cc2=NC1=O
Output line: 0.41

====

Target: WT Nav1.5-α subunits (Homo sapiens, UniProt Q14524)
Construct: expressed in transfected cells; host or cells: HEK293 (transient transfection)
Experiment: Whole-cell patch clamp, single voltage-pulse protocol (peak INa, conductance, fast inactivation) in transiently transfected HEK293 cells
Assay type: cell-based
Conditions: 50 μM
Recorded fast inactivation onset time constant FI −10 mV, one value per entry.
Write the value in ms as a bare number.

- Compound: "Cc1cc(F)ccc1NS(=O)(=O)c1ccc2c(c1)=NC(=O)N=2 [ZINC64470745]"
  Units Symbol: "ms"
  Numeric Value: 0.37
- Compound: "C=CCNS(=O)(=O)c1ccc2c(c1)=NC(=O)N=2 [ZINC39699427]"
  Units Symbol: "ms"
  Numeric Value: 0.35
- Compound: "O=C1N=c2ccc(C(=O)NCc3ccco3)cc2=NC1=O [ZINC38767171]"
  Units Symbol: "ms"
  Numeric Value: 0.58
- Compound: "CN(C)[C@@H](CNC(=O)c1ccc2c(c1)=NC(=O)C(=O)N=2)c1ccco1 [ZINC40014265]"
  Units Symbol: "ms"
  Numeric Value: 0.37
- Compound: "COc1cccc(NS(=O)(=O)c2ccc3c(c2)=NC(=O)N=3)c1 [ZINC64470729]"
  Units Symbol: "ms"
  Numeric Value: 0.40

Input line: State, in one line, measured fast inactivation onset time constant FI −10 mV of CCc1ccccc1NS(=O)(=O)c1ccc2c(c1)=NC(=O)N=2 [ZINC64470737]
Output line: 0.64
